System: Escherichia coli
Assay: Antibacterial activity against Escherichia coli assessed as growth inhibition at 100 umol/L after 8 hrs by ELISA plate reader analysis relative to control
Type: functional
Details: read-out: GI
Binning rule for recorded inhibition of growth at 100 µM: 0: < 10%; 1: ≥ 10% and < 20%; 2: ≥ 20%

CC(C)(C)c1cc(/C=N/NC(=O)COc2ccc(Cl)cc2)c(O)c(C(C)(C)C)c1 1

Lab note: sort `COc1ccc(CC(=O)N/N=C/c2cc([N+](=O)[O-])ccc2O)cc1` into the matching inhibition of growth at 100 µM band. 0

Each compound maps to one class by inhibition of growth at 100 µM. Which class for `COC(=O)[C@H](Cc1ccccc1)/N=C/c1ccccc1O` ? 1

Input `O=C(N/N=C/c1cc(Br)ccc1O)c1ccncc1` ; output its category 2

Hi there! Could you help me figure out the category for `CC(C)(C)c1cc(/C=N/NC(=O)c2ccccc2O)c(O)c(C(C)(C)C)c1` please? 1

Band assignment needed for `O=C(COc1ccc(Cl)cc1)N/N=C/c1cc(Cl)ccc1O` please. 0

Any idea which band `O=C(COc1ccc(Cl)cc1)N/N=C/c1ccc(OCc2ccccc2)c(OCc2ccccc2)c1` is in? 1

Form field 'band' for `O=C(O)[C@H](Cc1ccc(O)cc1)/N=C/c1ccccc1O` 2

Where would `CC(C)(C)c1cc(/C=N/NC(=O)c2ccncc2)c(O)c(C(C)(C)C)c1` land among the classes by reported inhibition of growth at 100 µM? 1

* * *

Test system: Staphylococcus aureus
Assay: Antibacterial activity against Staphylococcus aureus assessed as growth inhibition at 100 umol/L after 8 hrs by ELISA plate reader analysis relative to control
Format: functional
Conditions: read-out: GI
measured-quantity: inhibition of growth at 100 µM
Answer format reminder: number followed by unit.

compound	tested-system	inhibition of growth at 100 µM
CN[C@@H]1[C@H](O[C@H]2[C@H](O[C@H]3[C@H](O)[C@@H](O)[C@H](N=C(N)N)[C@@H](O)[C@@H]3N=C(N)N)O[C@@H](C)[C@]2(O)C=O)O[C@@H](CO)[C@H](O)[C@H]1O [STREPTOMYCIN]	Staphylococcus aureus	97%
O=C(COc1ccc(Cl)cc1)N/N=C/c1ccc(OCc2ccccc2)c(OCc2ccccc2)c1	Staphylococcus aureus	99.5%
O=C(COc1ccc(Cl)cc1)N/N=C/c1cc([N+](=O)[O-])ccc1O	Staphylococcus aureus	1.39%
CC(C)(C)c1cc(/C=N/NC(=O)c2ccncc2)c(O)c(C(C)(C)C)c1	Staphylococcus aureus	95.5%
CC(C)(C)c1cc(/C=N/NC(=O)c2ccccc2O)c(O)c(C(C)(C)C)c1	Staphylococcus aureus	70.9%

Identify the measured inhibition of growth at 100 µM of `COC(=O)[C@H](Cc1ccccc1)/N=C/c1ccccc1O` for Staphylococcus aureus. 86.9%

* * *

System: Escherichia coli
Assay: Antibacterial activity against Escherichia coli assessed as growth inhibition at 100 umol/L after 8 hrs by ELISA plate reader analysis relative to control
Assay type: functional
Settings: read-out: GI
measured-quantity: inhibition of growth at 100 µM (%)
Write the number in % without appending the unit.

A selection of reference data follows.
compound	value-unit	inhibition of growth at 100 µM
O=C(N/N=C/c1ccccc1O)c1ccccc1O	%	11.8
O=C(N/N=C/c1ccccc1O)c1ccncc1 [SALINAZID]	%	6.81
O=C(N/N=C/c1cc([N+](=O)[O-])ccc1O)c1ccncc1	%	41.8
CC1(C)S[C@@H]2[C@H](NC(=O)[C@H](N)c3ccccc3)C(=O)N2[C@H]1C(=O)O [AMPICILLIN]	%	99.3
O=C(COc1ccc(Cl)cc1)N/N=C/c1cc(Br)ccc1O	%	73.2

Find the recorded inhibition of growth at 100 µM belonging to `O=C(COc1ccc(Cl)cc1)N/N=C/c1ccccc1O` and report it. 0.23

# input compound: `O=C(O)[C@H](Cc1ccccc1)/N=C/c1ccccc1O` ; wanted: its inhibition of growth at 100 µM 22.7
